methodDescription: Stability of analytes in dried saliva Mitra VAMS tips
Format: physicochemical
protocolConditions: dried saliva on Mitra VAMS tips, LQC; room temperature (light-protected with desiccant); 2 weeks; n=6
attributeMeasured: recovery at 2 weeks
Could you give the number and then its unit, please?

Lab note: COc1c(C)c2c(c(O)c1C/C=C(\C)CCC(=O)O)C(=O)OC2 gave recovery at 2 weeks of 95.6%

* * *

methodDescription: Pharmacokinetics from capillary blood collected with Mitra VAMS (vMPA, vMPAG)
Format: in vivo, human
protocolConditions: human, corrected to estimated capillary plasma concentration, n = 20, mean (range)
attributeMeasured: AUC(0-t) (ng·h/mL)
Enter your answer as a number in ng·h/mL; do not include the unit.

Recorded AUC(0-t) (molecule COc1c(C)c2c(c(O)c1C/C=C(\C)CCC(=O)O)C(=O)OC2 ): 21400

* * *

methodDescription: Pharmacokinetics from liquid (wet) saliva collected with Salivette (sMPA, sMPAG)
Type: in vivo, human
protocolConditions: human, unstimulated, Salivette; wet saliva; pediatric renal transplant recipients (n = 20) on MMF; mean (range)
attributeMeasured: AUC(0-t) (ng·h/mL)
Quick note: give the figure in ng·h/mL, leave out the unit.

AUC(0-t) recorded for this compound, COc1c(C)c2c(c(O)c1C/C=C(\C)CCC(=O)O)C(=O)OC2 , is 107

* * *

methodDescription: Pharmacokinetics from plasma unbound levels in plasma ultrafiltrate (fMPA, fMPAG)
Type: in vivo, human
protocolConditions: human, plasma ultrafiltrate (unbound level in EDTA plasma); free level in plasma ultrafiltrate; pediatric renal transplant recipients (n = 20) on MMF; mean (range); read-out: Tmax
Protocol: The AUC0–4, Tmax, and Cmax parameters were calculated using the R (version 4.5.1) package software (R Core Team, 2025), supported by RStudio (version 2025.05.1+513) from Posit PBC software (Boston, MA, USA). […] The vMPA and vMPAG capillary blood levels were corrected using formulas validated in our department (partially published by Kocur et al.) and expressed as estimated capillary plasma concentrations. […]
attributeMeasured: Tmax (min)
// note: answer is a bare numeric in min

Data point: COc1c(C)c2c(c(O)c1C/C=C(\C)CCC(=O)O)C(=O)OC2 ; Tmax = 54

* * *

methodDescription: Pharmacokinetics from capillary blood collected with Mitra VAMS (vMPA, vMPAG)
Format: in vivo, human
protocolConditions: human, pediatric renal transplant recipients (n = 20) on MMF, mean (range), read-out: Tmax
attributeMeasured: Tmax
Express your answer as a number followed by its unit.

Memo: COc1c(C)c2c(c(O)c1C/C=C(\C)CCC(=O)O)C(=O)OC2 , reported Tmax: 46.8 min

* * *

methodDescription: Pharmacokinetics from total plasma levels (tMPA, tMPAG), LC-MS/MS
Assay type: in vivo, human
protocolConditions: human; total plasma level; 0.5 h post-dose; n = 20; mean ± SD; read-out: C0.5 concentration
attributeMeasured: concentration at 0.5 h (ng/mL)
Respond with the bare value in ng/mL.

Summary for this compound, COc1c(C)c2c(c(O)c1C/C=C(\C)CCC(=O)O)C(=O)OC2 : concentration at 0.5 h is 10700

* * *

methodDescription: Stability of analytes in dried saliva Mitra VAMS tips
Assay type: physicochemical
protocolConditions: dried saliva on Mitra VAMS tips, HQC; room temperature (light-protected with desiccant); 1 week; n=6
attributeMeasured: recovery at 1 week
Remember to put the unit after the number in your answer.

Memo: COc1c(C)c2c(c(O)c1C/C=C(\C)CCC(=O)O)C(=O)OC2 , reported recovery at 1 week: 97.2%
